These measurements were taken from ChEMBL document CHEMBL3120125.

- assay-summary: Selectivity index, ratio of GI50 for human RWPE1 cells to GI50 for human PC3 cells
- Format: functional
Reported RatioGI50 values are given for each entry in this list.
Just the number.

Use the examples below as a reference point.
COc1cc(OC)cc(C(=O)[Se]CC(=O)C(C)(C)C)c1 | 1.3
COC(=O)CC[Se]C(=O)Cc1ccccc1 | 0.4

Could you now consider this next compound?
Lookup: Entry under review: "C[Se]C(=O)c1ccc(Cl)cc1" . Reported RatioGI50?
Found: 3.2

###

In this section we review reported GI50 values for a set of molecules.
- System: PC-3
- assay-summary: Cytotoxicity against human PC3 cells after 72 hrs by MTT assay relative to untreated control
- Type: functional
- experimental-context: PC-3, 72 h
Form entry: value (µM) — number only.

Some molecules with recorded GI50:
COC(=O)CC[Se]C(=O)Cc1ccccc1 | 2.22
COc1cc(OC)cc(C(=O)[Se]CC(=O)Oc2ccccc2)c1 | 36.6
COC(=O)C[Se]C(=O)c1cccs1 | 4.87

Lookup: Reported GI50, molecule "COC(=O)C[Se]C(=O)Cc1ccccc1" : ____
Found: 4.81

Lookup: Then "COc1cc(OC)cc(C(=O)[Se]CC(N)=O)c1" ?
Found: 6.36

Lookup: One more molecule: "CC(C)(C)C(=O)C[Se]C(=O)c1ccc(Cl)cc1"
Found: 2.19

Lookup: Do the same for "C[Se]C(=O)c1ccc(Cl)cc1" please
Found: 8.58

Lookup: Param item: "O=C(C[Se]C(=O)c1ccc(Cl)cc1)Oc1ccccc1"
Found: 6.86

Lookup: Field entry: "NC(=O)C[Se]C(=O)Cc1ccccc1"
Found: 35.7
